Data provenance: patent US7811352B2

# Experiment: Solubility of L-lysine (HCl) in water
# Format: physicochemical
# Assay Context: at 25° C., read-out: solubility in H2O
Measure: solubility

IN: What value of measured solubility is listed for Cl.NCCCC[C@H](N)C(=O)O [Lys (HCl) 15% N, L-lysine monohydrochloride] ?
OUT: 500 to 600 mg/mL
